assayName: Gelation capability of gelators, stable-to-inversion of container method (minimum gelation concentration, gel stability and clarity)
Format: physicochemical
conditionSummary: pH 7 (0.08 M MOPSO buffer)
quantityName: minimum gelation concentration (MGC) (wt %)

CC(C)[C@H](NC(=O)CCCC[C@@H]1SC[C@@H]2NC(=O)N[C@@H]21)C(=O)O	2.7

1. CC[C@H](C)[C@H](NC(=O)CCCC[C@@H]1SC[C@@H]2NC(=O)N[C@@H]21)C(=O)O
2. CCCCCCC(NC(=O)CCCC[C@@H]1SC[C@@H]2NC(=O)N[C@@H]21)C(=O)O (mixture of isomers)
Which of the two items, 1 and 2 , has the greater recorded minimum gelation concentration (MGC)? Answer = label.
1
(1: 2.7 wt %, 2: 1.7 wt %)

====

quantityName: melting point (°C)

O=C(CCCC[C@@H]1SC[C@@H]2NC(=O)N[C@@H]21)N[C@@H](Cc1ccccc1)C(=O)O	205
CCC[C@H](NC(=O)CCCC[C@@H]1SC[C@@H]2NC(=O)N[C@@H]21)C(=O)O	255
CCCC[C@H](NC(=O)CCCC[C@@H]1SC[C@@H]2NC(=O)N[C@@H]21)C(=O)O	172
CSCC[C@H](NC(=O)CCCC[C@@H]1SC[C@@H]2NC(=O)N[C@@H]21)C(=O)O	207

====

assayName: Gelation capability of gelators, stable-to-inversion of container method (minimum gelation concentration, gel stability and clarity)
Type: physicochemical
Description: In order to examine the gelation capability of gelators 1 to 11, the degrees of gelation in various aqueous media were measured as follows, in accordance with the “stable-to-inversion of container” method (Menger, F. M. and Caran, K. L., J. Am. Chem. Soc. 2000, 122, 11679). […] Then, the minimum gelation concentration (MGC, wt %), i.e., the lowest concentration of a gelator at which it forms a hydrogel, of each gelator compound was determined, and the result is shown in Table 1.
quantityName: clarity of gel

The following compounds have reported results that may help.
CC(C)[C@H](NC(=O)CCCC[C@@H]1SC[C@@H]2NC(=O)N[C@@H]21)C(=O)O [Gelator 5, N-biotinyl-L-valine]	opaque
CCC[C@H](NC(=O)CCCC[C@@H]1SC[C@@H]2NC(=O)N[C@@H]21)C(=O)O [Gelator 8, N-biotinyl-L-norvaline]	opaque
O=C(CCCC[C@@H]1SC[C@@H]2NC(=O)N[C@@H]21)N[C@@H](Cc1ccccc1)C(=O)O [Gelator 1, N-biotinyl-L-phenylalanine]	translucent to opaque
CC[C@H](C)[C@H](NC(=O)CCCC[C@@H]1SC[C@@H]2NC(=O)N[C@@H]21)C(=O)O [Gelator 4, N-biotinyl-L-isoleucine]	opaque

Turning now to a further compound:
Please look up its clarity of gel: CC(C)C[C@H](NC(=O)CCCC[C@@H]1SC[C@@H]2NC(=O)N[C@@H]21)C(=O)O [Gelator 2, N-biotinyl-L-leucine]
translucent to opaque

====

assayName: Gelation capability of gelators, stable-to-inversion of container method (minimum gelation concentration, gel stability and clarity)
Type: physicochemical
conditionSummary: pH 9 (0.025 M sodium tetraborate buffer)
quantityName: minimum gelation concentration (MGC) (wt %)

CCCCCC(NC(=O)CCCC[C@@H]1SC[C@@H]2NC(=O)N[C@@H]21)C(=O)O (stereo partly drawn) [Gelator 10, N-biotinyl-D,L-2-aminoenantic acid]	4.0
CC(C)C[C@H](NC(=O)CCCC[C@@H]1SC[C@@H]2NC(=O)N[C@@H]21)C(=O)O [Gelator 2, N-biotinyl-L-leucine]	3.6
CC(C)[C@H](NC(=O)CCCC[C@@H]1SC[C@@H]2NC(=O)N[C@@H]21)C(=O)O [Gelator 5, N-biotinyl-L-valine]	4.0
CCCC[C@H](NC(=O)CCCC[C@@H]1SC[C@@H]2NC(=O)N[C@@H]21)C(=O)O [Gelator 9, N-biotinyl-L-norleucine]	1.5
CCCCCCC(NC(=O)CCCC[C@@H]1SC[C@@H]2NC(=O)N[C@@H]21)C(=O)O (mixture of isomers) [Gelator 11, N-biotinyl-D,L-2-aminocaprylic acid]	3.5
O=C(CCCC[C@@H]1SC[C@@H]2NC(=O)N[C@@H]21)N[C@@H](Cc1ccccc1)C(=O)O [Gelator 1, N-biotinyl-L-phenylalanine]	4.0
CC[C@H](C)[C@H](NC(=O)CCCC[C@@H]1SC[C@@H]2NC(=O)N[C@@H]21)C(=O)O [Gelator 4, N-biotinyl-L-isoleucine]	3.9
CCC[C@H](NC(=O)CCCC[C@@H]1SC[C@@H]2NC(=O)N[C@@H]21)C(=O)O [Gelator 8, N-biotinyl-L-norvaline]	3.8

====

assayName: Gelation capability of gelators, stable-to-inversion of container method (minimum gelation concentration, gel stability and clarity)
Type: physicochemical
conditionSummary: pH 2 (0.01 M hydrochloric buffer)
quantityName: minimum gelation concentration (MGC) (wt %)

CCCCCCC(NC(=O)CCCC[C@@H]1SC[C@@H]2NC(=O)N[C@@H]21)C(=O)O (mixture of isomers) [Gelator 11, N-biotinyl-D,L-2-aminocaprylic acid]	0.8
CCCC[C@H](NC(=O)CCCC[C@@H]1SC[C@@H]2NC(=O)N[C@@H]21)C(=O)O [Gelator 9, N-biotinyl-L-norleucine]	0.2
O=C(CCCC[C@@H]1SC[C@@H]2NC(=O)N[C@@H]21)N[C@@H](Cc1ccccc1)C(=O)O [Gelator 1, N-biotinyl-L-phenylalanine]	1.5

P. CCCCCC(NC(=O)CCCC[C@@H]1SC[C@@H]2NC(=O)N[C@@H]21)C(=O)O (stereo partly drawn) [Gelator 10, N-biotinyl-D,L-2-aminoenantic acid]
Q. CCC[C@H](NC(=O)CCCC[C@@H]1SC[C@@H]2NC(=O)N[C@@H]21)C(=O)O [Gelator 8, N-biotinyl-L-norvaline]
Which of the two items, P and Q , has the greater recorded minimum gelation concentration (MGC)? Answer = label.
Q
(Q: 0.9 wt %, P: 0.6 wt %)

====

assayName: Gelation capability of gelators, stable-to-inversion of container method (minimum gelation concentration, gel stability and clarity)
Type: physicochemical
conditionSummary: pH 4 (0.05 M phthalate buffer)
Description: In order to examine the gelation capability of gelators 1 to 11, the degrees of gelation in various aqueous media were measured as follows, in accordance with the “stable-to-inversion of container” method (Menger, F. M. and Caran, K. L., J. Am. Chem. Soc. 2000, 122, 11679). […] Then, the minimum gelation concentration (MGC, wt %), i.e., the lowest concentration of a gelator at which it forms a hydrogel, of each gelator compound was determined, and the result is shown in Table 1.
quantityName: minimum gelation concentration (MGC) (wt %)

a. CCCCCCC(NC(=O)CCCC[C@@H]1SC[C@@H]2NC(=O)N[C@@H]21)C(=O)O (mixture of isomers)
b. CC(C)C[C@H](NC(=O)CCCC[C@@H]1SC[C@@H]2NC(=O)N[C@@H]21)C(=O)O
Consider entries a and b . Which has the numerically lower minimum gelation concentration (MGC)? Answer = label.
a

====

assayName: Gelation capability of gelators, stable-to-inversion of container method (minimum gelation concentration, gel stability and clarity)
Type: physicochemical
conditionSummary: pH 2 (0.01 M hydrochloric buffer)
quantityName: minimum gelation concentration (MGC) (wt %)

CC(C)C[C@H](NC(=O)CCCC[C@@H]1SC[C@@H]2NC(=O)N[C@@H]21)C(=O)O [Gelator 2, N-biotinyl-L-leucine]	1.4
CC[C@H](C)[C@H](NC(=O)CCCC[C@@H]1SC[C@@H]2NC(=O)N[C@@H]21)C(=O)O [Gelator 4, N-biotinyl-L-isoleucine]	1.0
CC(C)[C@H](NC(=O)CCCC[C@@H]1SC[C@@H]2NC(=O)N[C@@H]21)C(=O)O [Gelator 5, N-biotinyl-L-valine]	1.0

====

assayName: Gelation capability of gelators, stable-to-inversion of container method (minimum gelation concentration, gel stability and clarity)
Type: physicochemical
conditionSummary: pH 4 (0.05 M phthalate buffer)
Protocol: In order to examine the gelation capability of gelators 1 to 11, the degrees of gelation in various aqueous media were measured as follows, in accordance with the “stable-to-inversion of container” method (Menger, F. M. and Caran, K. L., J. Am. Chem. Soc. 2000, 122, 11679). […] Then, the minimum gelation concentration (MGC, wt %), i.e., the lowest concentration of a gelator at which it forms a hydrogel, of each gelator compound was determined, and the result is shown in Table 1.
quantityName: minimum gelation concentration (MGC) (wt %)

CC[C@H](C)[C@H](NC(=O)CCCC[C@@H]1SC[C@@H]2NC(=O)N[C@@H]21)C(=O)O [Gelator 4, N-biotinyl-L-isoleucine]	1.2
CCCCCC(NC(=O)CCCC[C@@H]1SC[C@@H]2NC(=O)N[C@@H]21)C(=O)O (stereo partly drawn) [Gelator 10, N-biotinyl-D,L-2-aminoenantic acid]	1.0
CC(C)[C@H](NC(=O)CCCC[C@@H]1SC[C@@H]2NC(=O)N[C@@H]21)C(=O)O [Gelator 5, N-biotinyl-L-valine]	1.4
CCC[C@H](NC(=O)CCCC[C@@H]1SC[C@@H]2NC(=O)N[C@@H]21)C(=O)O [Gelator 8, N-biotinyl-L-norvaline]	1.2
